assay: NIH3T3 cell viability loss – ATP luminescence, mouse fibroblasts, counter-screen, dose response (AID 2010); assay type: functional, cell-based;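 note: cells exposed to compound for about 90 hours before reading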
ASSAY METRIC: EC50

[[record]]
molecule = "Cn1nc([N+](=O)[O-])c(C(C#N)c2ccccn2)c(Cl)c1=O (stereo not given)"
readout_value = "> 30 µM (not active)"

[[record]]
molecule = "Oc1ccc(-c2nccc(-c3ccc(Cl)cc3Cl)n2)cc1"
readout_value = "> 60 µM (not active)"

[[record]]
molecule = "O=C(Nc1ccc(F)cc1)NC1CCN(Cc2ccccc2)CC1"
readout_value = "> 60 µM (not active)"

[[record]]
molecule = "O=C(N/N=C/c1ccc([N+](=O)[O-])o1)c1cn(-c2ccccc2)nc1-c1ccc(F)cc1"
readout_value = "> 60 µM (not active)"

[[record]]
molecule = "CN1CCN(S(=O)(=O)c2cnccc2N2CCN(c3cccc(Cl)c3)CC2)CC1"
readout_value = "> 60 µM (inconclusive)"


====

test: Luminescence Cell-Based Dose Confirmation HTS to Identify Activators of 5'UTR Stem-Loop Driven Alpha-Synuclein mRNA Translation in H4 Neuroglioblastoma Cells. [Related pubchem assays: 1829 (Project Summary), 1814 (Primary HTS)]; type: functional
Activity calls are given as the source filed them.
# EC50 annotations
ASSAY METRIC: EC50

[[record]]
molecule = "COc1cc2c(cc1OC)C(c1ccccc1)N(C(=O)CCl)CC2 (stereo unspecified)"
assay_metric = "EC50"
readout_value = "> 120 µM (not active)"

[[record]]
molecule = "Clc1ccc(Nc2nc3cccnc3s2)cc1"
assay_metric = "EC50"
readout_value = "0.341 µM (active)"

[[record]]
molecule = "O=C(Nc1ccccc1[N+](=O)[O-])c1ccc(S(=O)(=O)N2CCCC2)cc1"
assay_metric = "EC50"
readout_value = "10.8 µM (active)"

[[record]]
molecule = "O=C(CN1C(=O)COc2ccccc21)Nc1ccc(F)cc1"
assay_metric = "EC50"
readout_value = "11.9 µM (active)"

[[record]]
molecule = "Cc1ccc(S(=O)(=O)/N=C2/C=C(C3C(=O)CC(C)(C)CC3=O)C(=O)c3ccccc32)cc1"
assay_metric = "EC50"
readout_value = "8.21 µM (active)"

[[record]]
molecule = "C#CCSc1nnc(-c2ccc(OC)cc2)o1"
assay_metric = "EC50"
readout_value = "7.23 µM (active)"


====

Biological target: Epstein-Barr nuclear antigen 1 (Epstein-Barr virus (strain B95-8) (HHV-4) (Human herpesvirus 4), UniProt P03211)
Sequence (P03211 whole entry): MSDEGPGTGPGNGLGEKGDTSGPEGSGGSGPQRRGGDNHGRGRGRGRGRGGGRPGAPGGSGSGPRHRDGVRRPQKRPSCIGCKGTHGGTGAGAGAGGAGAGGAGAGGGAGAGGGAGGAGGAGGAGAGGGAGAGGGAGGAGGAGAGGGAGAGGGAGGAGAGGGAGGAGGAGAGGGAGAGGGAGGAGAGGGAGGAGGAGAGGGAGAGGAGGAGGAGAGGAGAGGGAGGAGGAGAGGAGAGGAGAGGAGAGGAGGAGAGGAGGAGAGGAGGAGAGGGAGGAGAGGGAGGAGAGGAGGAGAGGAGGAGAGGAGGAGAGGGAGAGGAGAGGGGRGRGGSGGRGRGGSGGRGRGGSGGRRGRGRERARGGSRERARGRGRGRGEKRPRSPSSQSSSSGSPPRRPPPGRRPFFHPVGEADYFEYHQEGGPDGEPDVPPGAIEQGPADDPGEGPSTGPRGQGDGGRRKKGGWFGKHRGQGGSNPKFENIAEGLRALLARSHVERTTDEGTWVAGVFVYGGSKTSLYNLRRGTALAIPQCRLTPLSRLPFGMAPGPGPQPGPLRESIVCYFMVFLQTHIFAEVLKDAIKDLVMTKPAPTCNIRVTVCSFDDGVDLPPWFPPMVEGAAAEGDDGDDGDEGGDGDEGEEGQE
Experiment: inhibition of EBV nuclear antigen 1 DNA binding – biochemical, fluorescence polarization, 1536-well, dose response (AID 2381);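 note: fluorescence polarization of a Cy5 DNA probe bound by EBNA-1 protein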
Design: species or system human gammaherpesvirus 4
Activity calls are given as the source filed them.
ASSAY METRIC: IC50

[[record]]
structure_smiles_string = "CCOC(=O)c1oc2ccccc2c1NC(=O)c1ccc(S(=O)(=O)N(C)C)cc1"
readout_value = "16.6 µM (not active)"

[[record]]
structure_smiles_string = "CNC(=S)NNC(=O)c1sccc1OCc1cccc(C(F)(F)F)c1"
readout_value = "9.69 µM (active)"

[[record]]
structure_smiles_string = "CCCC(=O)Nc1ccc2nc(SCC(=O)Nc3ccc(N4CCOCC4)c(Cl)c3)sc2c1"
readout_value = "> 148 µM (not active)"

[[record]]
structure_smiles_string = "COc1ccccc1Nc1ncc(C(=O)Nc2ccc(OC)c(OC)c2)c2ccccc12"
readout_value = "16.5 µM (not active)"

[[record]]
structure_smiles_string = "Cc1ccc(-c2nc3ccccc3[nH]2)cc1NC(=O)c1sc2cc(Cl)ccc2c1Cl"
readout_value = "13 µM (not active)"

